Assign IC50 to each entry below.
# TARGET SYSTEM: UniProtKB Q08828
# ASSAY PROCEDURE: Inhibition of [125 I]6-IHPP-forskolin binding to adenylate cyclase 1
# Sequence (Q08828 whole entry): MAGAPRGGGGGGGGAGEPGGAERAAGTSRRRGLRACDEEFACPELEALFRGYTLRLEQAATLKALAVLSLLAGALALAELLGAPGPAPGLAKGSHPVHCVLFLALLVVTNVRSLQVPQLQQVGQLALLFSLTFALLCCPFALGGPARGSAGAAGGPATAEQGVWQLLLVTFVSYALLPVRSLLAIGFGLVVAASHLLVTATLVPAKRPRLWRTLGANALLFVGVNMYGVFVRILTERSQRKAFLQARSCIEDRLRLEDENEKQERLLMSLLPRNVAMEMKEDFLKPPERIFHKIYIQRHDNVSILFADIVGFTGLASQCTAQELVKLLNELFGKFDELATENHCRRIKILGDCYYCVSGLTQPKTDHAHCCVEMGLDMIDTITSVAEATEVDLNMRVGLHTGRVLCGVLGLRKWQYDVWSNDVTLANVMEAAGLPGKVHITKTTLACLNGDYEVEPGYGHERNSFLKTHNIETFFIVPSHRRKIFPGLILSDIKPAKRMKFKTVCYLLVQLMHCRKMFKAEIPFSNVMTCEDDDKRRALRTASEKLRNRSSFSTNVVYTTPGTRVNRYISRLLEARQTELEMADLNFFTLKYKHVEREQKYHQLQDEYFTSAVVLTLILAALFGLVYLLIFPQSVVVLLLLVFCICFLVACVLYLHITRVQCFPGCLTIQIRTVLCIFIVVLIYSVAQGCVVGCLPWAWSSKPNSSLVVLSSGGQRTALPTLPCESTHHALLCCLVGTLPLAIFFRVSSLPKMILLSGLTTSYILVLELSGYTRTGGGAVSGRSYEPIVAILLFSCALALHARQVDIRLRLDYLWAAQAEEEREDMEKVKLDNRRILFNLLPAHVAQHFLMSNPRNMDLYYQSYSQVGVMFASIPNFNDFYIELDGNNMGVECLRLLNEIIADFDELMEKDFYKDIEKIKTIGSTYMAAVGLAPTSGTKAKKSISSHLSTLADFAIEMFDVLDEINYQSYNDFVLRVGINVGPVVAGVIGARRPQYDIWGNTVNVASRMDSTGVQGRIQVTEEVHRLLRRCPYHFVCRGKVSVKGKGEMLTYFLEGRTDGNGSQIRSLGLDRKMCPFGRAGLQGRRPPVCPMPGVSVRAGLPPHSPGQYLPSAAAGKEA
Give bare numbers, in nM.

Some solved cases for reference:
1. C=C[C@@]1(C)CC(=O)[C@]2(O)[C@@]3(C)[C@@H](O)CCC(C)(C)[C@@H]3[C@H](OC(=O)NCCN3CCCCC3)[C@H](OC(C)=O)[C@@]2(C)O1: 82
2. C=C[C@@]1(C)CC(=O)[C@]2(O)[C@@]3(C)[C@@H](O)CCC(C)(C)[C@@H]3[C@H](OC(=O)NCCOC)[C@H](OC(C)=O)[C@@]2(C)O1: 32

[ask] Item under review: `C=C[C@@]1(C)CC(=O)[C@]2(O)[C@@]3(C)[C@@H](O)CCC(C)(C)[C@@H]3[C@H](OC(=O)NCC(C)C)[C@H](OC(C)=O)[C@@]2(C)O1` . Reported IC50?
[reply] 167

====

# TARGET SYSTEM: Adenylate cyclase type 1 (Homo sapiens, UniProt Q08828)
# ASSAY PROCEDURE: Maximum stimulation activity measured with 100 uM forskolin mediated by adenylate cyclase 1
# Assay type: functional
# Sequence (Q08828 whole entry, looked up): as the sequence (Q08828 whole entry) above
For each of the compounds below, state its Activity.
Please provide the amount together with its unit, number first.

Worked examples, 5 compounds total:
1. C=C[C@@]1(C)CC(=O)[C@]2(O)[C@@]3(C)[C@@H](O)CCC(C)(C)[C@@H]3[C@H](OC(=O)NCC(C)C)[C@H](O)[C@@]2(C)O1: 88%
2. C=C[C@@]1(C)CC(=O)[C@]2(O)[C@@]3(C)[C@@H](O)CCC(C)(C)[C@@H]3[C@H](OC(=O)NCCc3ccccc3)[C@H](OC(C)=O)[C@@]2(C)O1: 65%
3. C=C[C@@]1(C)CC(=O)[C@]2(O)[C@@]3(C)[C@@H](O)CCC(C)(C)[C@@H]3[C@H](O)[C@H](OC(=O)NCCOC)[C@@]2(C)O1: 97%
4. C=C[C@@]1(C)CC(=O)[C@]2(O)[C@@]3(C)[C@@H](O)CCC(C)(C)[C@@H]3[C@H](OC(=O)NCCC(C)(C)C)[C@H](O)[C@@]2(C)O1: 63%
5. C=C[C@@]1(C)CC(=O)[C@]2(O)[C@@]3(C)[C@@H](O)CCC(C)(C)[C@@H]3[C@H](OC(=O)NCCC)[C@H](O)[C@@]2(C)O1: 61%

Would you kindly look at the next entry?
[ask] Requested read-out: Activity. Entry: `C=C[C@@]1(C)CC(=O)[C@]2(O)[C@@]3(C)[C@@H](O)CCC(C)(C)[C@@H]3[C@H](OC(=O)NCCc3ccc(O)cc3)[C@H](O)[C@@]2(C)O1`
[reply] 86%

====

# TARGET SYSTEM: UniProtKB Q08828
# ASSAY PROCEDURE: Conversion of [32P] ATP to [32P]-cyclic AMP mediated by adenylate cyclase 1
# Assay type: functional
# RUN PARAMETERS: read-out: EC50
Could you please report measured pEC50 for the items listed next?
Answers are plain numbers, as −log10 of the molar value.

Here are 2 molecules together with their reported answers.
1. C=C[C@@]1(C)CC(=O)[C@]2(O)[C@@]3(C)[C@@H](O)CCC(C)(C)[C@@H]3[C@H](OC(=O)NCCO)[C@H](OC(C)=O)[C@@]2(C)O1: 6.30
2. C=C[C@@]1(C)CC(=O)[C@]2(O)[C@@]3(C)[C@@H](O)CCC(C)(C)[C@@H]3[C@H](O)[C@H](OC(=O)NCCN(C)C)[C@@]2(C)O1: 5.66

For every record below, what is its pEC50?
1. C=C[C@@]1(C)CC(=O)[C@]2(O)[C@@]3(C)[C@@H](O)CCC(C)(C)[C@@H]3[C@H](OC(=O)NCCC(C)(C)C)[C@H](O)[C@@]2(C)O1
2. C=C[C@@]1(C)CC(=O)[C@]2(O)[C@@]3(C)[C@@H](O)CCC(C)(C)[C@@H]3[C@H](OC(=O)NCCN)[C@H](OC(C)=O)[C@@]2(C)O1

[reply]
[5.68, 6.22]

Return reported pEC50 values for all items listed beneath this line.
1. C=C[C@@]1(C)CC(=O)[C@]2(O)[C@@]3(C)[C@@H](O)CCC(C)(C)[C@@H]3[C@H](OC(=O)NCCc3ccccc3)[C@H](OC(C)=O)[C@@]2(C)O1
2. C=C[C@@]1(C)CC(=O)[C@]2(O)[C@@]3(C)[C@@H](O)CCC(C)(C)[C@@H]3[C@H](OC(=O)NCCC(C)(C)C)[C@H](OC(C)=O)[C@@]2(C)O1

[reply]
1. 5.82
2. 5.09

====

# TARGET SYSTEM: Adenylate cyclase type 1 (Homo sapiens)
# ASSAY PROCEDURE: Maximum stimulation activity measured with 100 uM forskolin mediated by Adenylate cyclase 1
# Format: functional
Hi there, I'd appreciate the recorded Activity for every entry that follows.
One number for each entry, in %.

Below, 4 compounds whose answers are already recorded.
1. C=C[C@@]1(C)CC(=O)[C@]2(O)[C@@]3(C)[C@@H](O)CCC(C)(C)[C@@H]3[C@H](OC(=O)NCCOC)[C@H](O)[C@@]2(C)O1: 84
2. C=C[C@@]1(C)CC(=O)[C@]2(O)[C@@]3(C)[C@@H](O)CCC(C)(C)[C@@H]3[C@H](O)[C@H](OC(=O)NCCO)[C@@]2(C)O1: 119
3. C=C[C@@]1(C)CC(=O)[C@]2(O)[C@@]3(C)[C@@H](O)CCC(C)(C)[C@@H]3[C@H](O)[C@H](OC(=O)NCCN3CCCCC3)[C@@]2(C)O1: 81
4. C=C[C@@]1(C)CC(=O)[C@]2(O)[C@@]3(C)[C@@H](O)CCC(C)(C)[C@@H]3[C@H](O)[C@H](OC(=O)NCCc3ccc(N)cc3)[C@@]2(C)O1: 68

Pending compound:
[ask] Dear colleague, I am looking for the recorded Activity of the following compound: `C=C[C@@]1(C)CC(=O)[C@]2(O)[C@@]3(C)[C@@H](O)CCC(C)(C)[C@@H]3[C@H](O)[C@H](OC(=O)NCCN(C)C)[C@@]2(C)O1`
[reply] 89

====

For each of the compounds below, state its log10 of EC50.
# TARGET SYSTEM: Adenylate cyclase type 1 (Homo sapiens)
# ASSAY PROCEDURE: Conversion of [32P] ATP to [32P]-cyclic AMP mediated by adenylate cyclase 1
# Format: functional
# RUN PARAMETERS: read-out: EC50
A value of 2 here means EC50 of 100 in nM, since values are log10.

Worked cases, answers included:
1. C=C[C@@]1(C)CC(=O)[C@]2(O)[C@@]3(C)[C@@H](O)CCC(C)(C)[C@@H]3[C@H](OC(=O)NCCC(=O)OCC)[C@H](OC(C)=O)[C@@]2(C)O1: 3.54
2. C=C[C@@]1(C)CC(=O)[C@]2(O)[C@@]3(C)[C@@H](O)CCC(C)(C)[C@@H]3[C@H](O)[C@H](OC(=O)NCCC(C)(C)C)[C@@]2(C)O1: 3.98
3. C=C[C@@]1(C)CC(=O)[C@]2(O)[C@@]3(C)[C@@H](O)CCC(C)(C)[C@@H]3[C@H](OC(=O)NCCC)[C@H](OC(C)=O)[C@@]2(C)O1: 3.63
4. C=C[C@@]1(C)CC(=O)[C@]2(O)[C@@]3(C)[C@@H](O)CCC(C)(C)[C@@H]3[C@H](OC(=O)NCCN3CCCCC3)[C@H](OC(C)=O)[C@@]2(C)O1: 2.70
5. C=C[C@@]1(C)CC(=O)[C@]2(O)[C@@]3(C)[C@@H](O)CCC(C)(C)[C@@H]3[C@H](O)[C@H](OC(=O)NCCN3CCCCC3)[C@@]2(C)O1: 3.08

Proceeding to the next compound to report its log10 of EC50.
[ask] Item `C=C[C@@]1(C)CC(=O)[C@]2(O)[C@@]3(C)[C@@H](O)CCC(C)(C)[C@@H]3[C@H](OC(=O)NCC(C)C)[C@H](O)[C@@]2(C)O1` has what recorded log10 of EC50?
[reply] 3.40

====

# TARGET SYSTEM: Adenylate cyclase type 1 (Homo sapiens)
# ASSAY PROCEDURE: Maximum stimulation activity measured with 100 uM forskolin mediated by adenylate cyclase 1
# Format: functional
Rule: measured Activity below 80% gets yes; anything equal to or greater than 80% gets no.

[ask] is_below(Activity, 80%) for `C=C[C@@]1(C)CC(=O)[C@]2(O)[C@@]3(C)[C@@H](O)CCC(C)(C)[C@@H]3[C@H](O)[C@H](OC(=O)NCCC(C)(C)C)[C@@]2(C)O1` ?
[reply] yes

[ask] Lab note: confirm whether the reported Activity for this compound is below 80%, equality not counting. compound: `C=C[C@@]1(C)CC(=O)[C@]2(O)[C@@]3(C)[C@@H](O)CCC(C)(C)[C@@H]3[C@H](O)[C@H](OC(=O)NCCC(=O)OCC)[C@@]2(C)O1`
[reply] no

[ask] Bench note: check whether `C=C[C@@]1(C)CC(=O)[C@]2(O)[C@@]3(C)[C@@H](O)CCC(C)(C)[C@@H]3[C@H](OC(=O)NCC(C)C)[C@H](OC(C)=O)[C@@]2(C)O1` shows Activity below 80%
[reply] no

Where do these numbers come from? They come from ChEMBL document CHEMBL1129369.
